# Assay Overview: yeast display, Sf9 membrane polyspecificity reagent, FACS + sequencing; frameworks hold sequencing errors
Measured Quantity: polyreactivity (PSR sort gate)

| Residue Codes | polyreactivity (PSR sort gate) |
| --- | --- |
| QVQHVESRGGLVQAGGSLRLSCDASGSTFVTYAMGWYRQAPGKERELVAAISRSGGSTYYADSVKGRFTISRDNAKNTVYLQMNSLKPEDTAVYYCAARDGYGATGHDYWGQGTQVTVSS | low polyreactivity |
| QVQLVESGGGLVQAGGSLRLSCAASGSIFHIYAMGWYRQAPGKERELVAAISSGGRTNYADSVKGRFTISRDNAKNTVYLQMNSLKPEDTAVYYCAADWIYLPTRNYRVRVDYWGQGTQVTVSS | high polyreactivity |
| QVQLVESGGGLVQAGGSLRLSCAASGSTFGYYAMGWSRQAPGKERELVAVITYSGGSTYYADSVKGRFTISRDNAKNTVYLQMNSLKPEDTAVYYCAAVIGVWYYYTYDYWGQGTQVTVSS | low polyreactivity |
| QVQLVESGGGLVQAGGSLRLSCAASGRTYVVYAMGWYRQAPGKERELVARFRWRDVSTYYADSVKGRFTISRDNAKNTVYLQMNSLKPEDSAVYYCAARSYTGGGRLYYWGQGTQVTVSS | high polyreactivity |

From here, focus on the item given below.
[in] Value lookup for polyreactivity (PSR sort gate); key = QVQLVESGGGVVQAGGSLRLSCAASGSIFRQNTMGWYRQAPGKERELVAAISSGGSTYYADSVKGRFTISRDNAKNTVYLQMNSPKPEDTAVYYCAAYHSFVWGDDYWGQGTQVTVSS
[out] low polyreactivity
